Tested on: U2OS
Assay: Multiplex assay against U2OS
Format: toxicity, cell-based
Settings: human, 12 h, 1 µM, compound concentration 1 uM, replicate 1
Simple rule here: Population Mitochondria Different-Phenotype (%) less than 10% is yes (1), otherwise no (0).

{"Molecule": "Cc1c[nH]c2nccc(Oc3c(F)cc(Nc4cc(Cl)nc(N)n4)cc3F)c12", "Qualitative label": "no (0)"}
{"Molecule": "CNC(=O)Nc1ccc2c(c1)[C@@]1(CC2)OC(=O)N(CC(=O)N(Cc2ccc(F)cc2)[C@@H](C)C(F)(F)F)C1=O", "Qualitative label": "no (0)"}
{"Molecule": "Cc1nc(N2CC[C@H](O)C2)ncc1-c1cc(C(F)(F)F)cc2[nH]ncc12", "Qualitative label": "no (0)"}
{"Molecule": "CCCSc1nc(N[C@@H]2C[C@H]2c2ccc(F)c(F)c2)c2nnn([C@@H]3C[C@H](OCCO)[C@@H](O)[C@H]3O)c2n1", "Qualitative label": "no (0)"}
{"Molecule": "CN1CCN(Cc2ccc(Nc3ncc(Cl)c(Nc4ccccc4S(=O)(=O)N(C)C)n3)cc2)CC1", "Qualitative label": "yes (1)"}
{"Molecule": "COC(=O)C1=C(C)NC(C)=C(C(=O)OCCCN2CCC(c3ccccc3)(c3ccccc3)CC2)[C@H]1c1cccc([N+](=O)[O-])c1", "Qualitative label": "no (0)"}
{"Molecule": "C[C@]12CC[C@@H]3c4ccc(O)cc4CC[C@H]3[C@@H]1CC[C@@H]2O", "Qualitative label": "yes (1)"}
{"Molecule": "CC(C)NC(=O)N1CC[C@H](NC2=Nc3cc(F)ccc3N(CC(F)F)c3ccc(Cl)cc32)C1", "Qualitative label": "yes (1)"}
{"Molecule": "CNC(=O)Nc1ccc(-c2nc(N3CC4CCC(C3)O4)c3cnn(C4CCC5(CC4)OCCO5)c3n2)cc1", "Qualitative label": "no (0)"}
{"Molecule": "COc1cc(Nc2nccc(-c3cnn4nc(OC)ccc34)n2)cc(C(F)(F)F)c1", "Qualitative label": "no (0)"}
{"Molecule": "CC(C)(C)NC[C@H](O)COc1nsnc1N1CCOCC1", "Qualitative label": "yes (1)"}
{"Molecule": "Cc1cccc(CN2CCN(C(c3ccccc3)c3ccc(Cl)cc3)CC2)c1.Cl.Cl (configuration not stated)", "Qualitative label": "yes (1)"}
{"Molecule": "CC(C)Oc1ccccc1C(=O)Nc1ccccc1C(=O)Nc1cccc(S(=O)(=O)C(F)(F)F)c1", "Qualitative label": "no (0)"}
{"Molecule": "Cc1ccc2c(c1)c1c(n2CCc2ccc(C)nc2)CCN(C)C1 [LATREPIRDINE]", "Qualitative label": "no (0)"}
{"Molecule": "O=c1[nH]c2ccccc2n1C1CCN(Cc2ccc(-c3[nH]c4cc5ncnc5cc4nc3-c3ccccc3)cc2)CC1", "Qualitative label": "no (0)"}
{"Molecule": "CC(C)CC(=O)Nc1[nH]nc2c1CN(C(=O)C1CCN(C)CC1)C2(C)C", "Qualitative label": "no (0)"}
